target.entity: ATX-γ (Homo sapiens, UniProt Q13822)
Construct: made in house; host or cells: HEK293-Flp-In cells, protein purified from the culture medium
assay.comment: End-point choline release assay, relative inhibition by cannabinoids
Assay type: biochemical
condition.context: 10 µM compound, LPC 18:1 200 µM
readout: inhibition of ATX-γ catalysis

Exam item: Lab note: record inhibition of ATX-γ catalysis of CCCCCc1cc2c(c(O)c1C(=O)O)[C@@H]1C=C(C)CC[C@H]1C(C)(C)O2 [Tetrahydrocannabinolic acid, tetrahydrocannabinolic acid] tested on ATX-γ (Homo sapiens, UniProt Q13822).
Marked response: < 50%

----------
target.entity: ATX-β (Homo sapiens, UniProt Q13822)
Construct: made in house; host or cells: HEK293-Flp-In cells, protein purified from the culture medium
assay.comment: End-point choline release assay, relative inhibition by cannabinoids
Format: biochemical
condition.context: 10 µM compound, LPC 18:1 200 µM
readout: inhibition of ATX-β catalysis

Exam item: Tell me its inhibition of ATX-β catalysis given CCCCCc1cc2c(c(O)c1C(=O)O)[C@@H]1C=C(C)CC[C@H]1C(C)(C)O2 [Tetrahydrocannabinolic acid, tetrahydrocannabinolic acid] as the entry.
Marked response: < 50%
